These data points were gathered from paper PMC8729770.

# PROTOCOL: Cytotoxicity screening of the peptide library
# Format: cell-based, human
# MEASUREMENT SETUP: human; both repeats; read-out: IC50 cell toxicity MRC5-SV2
Ends that are not written are not given here.
PROPERTY: IC50

Noted for FNNLPICVEGLAGDIGSILLGVESDIGALAGAIANLALIAGECAAQGEAGAAICA-NH2 (cysteines drawn unpaired) [Hill-Stom1] : its IC50 reads < 32 µM

----------
Please respond with reported MIC E. coli ATCC 8739 for every item in the list.
# Test system: E. coli ATCC 8739
# Format: cell-based, Escherichia coli
# MEASUREMENT SETUP: repeat 1, 64-0.25 μM; determined visually, 16 h
Ends that are not written are not given here.

// below: answered substances
- SUBSTANCE: "DQSKEPFKPMERPYQRVRDAKIQGITIAQNGPNVLAITRGGLEQ [Hill-Cec6, Cecropin, C-terminal amidation]"
  MIC E. coli ATCC 8739: "> 32.00 µM"
- SUBSTANCE: "TTCDLISGTKIENIACAAHCIAMGHKGGYCNSNLICICR [Hill-Def7, Defensin without disulfide bridges]"
  MIC E. coli ATCC 8739: "> 64.00 µM"
- SUBSTANCE: "GWWKRVFKPVEKLGQRVRDAGIQGLEIAQQGANVLATARGGPPQQ-NH2 [Hill-Cec3]"
  MIC E. coli ATCC 8739: "1.00 µM"
- SUBSTANCE: "LSCLFENQAVSAIACGASCITRKGKRGGWCSNGVCRCTPN [Hill-Def6, Defensin without disulfide bridges]"
  MIC E. coli ATCC 8739: "> 64.00 µM"
- SUBSTANCE: "ATCDLLSPFKVGHAACAAHCIARGKRGGWCDKRAVCNCRK (also: bicyclic or more (positions not given here)) [Hill-Def2b, Defensin with disulfide bridges, counterpart of Hill-Def2a]"
  MIC E. coli ATCC 8739: "> 32.00 µM"
- SUBSTANCE: "ATCTNWNCRTQCIARGKRGGYCVERNICKCTS [Hill-Def3, Defensin without disulfide bridges]"
  MIC E. coli ATCC 8739: "> 64.00 µM"

Please state, for each entry, its recorded MIC E. coli ATCC 8739.
1. FNNLPICVEGLAGDIGSILLGVESDIGALAGAIANLALIAGECAAQGEAGAAICA-NH2 (cysteines drawn unpaired) [Hill-Stom1]
2. AMCDLLSGLNMGRSVCAMRCILKGHRGGWCDDQGVCNCRV [Hill-Def5, Defensin without disulfide bridges]
3. GWWKRVFKPVERLGQRVRDAGIQGLQIAQQGANVLATVRGGPPQQ-NH2 [Hill-Cec4]
4. RSLWKKLFKPVERAGQRIRDATIKGIVIAQQGANVLATIRGGPAIPPGQ-NH2 [Hill-Cec12]
5. GWWKRVFKPVEKFGQRVRDAGVQGIAIAQQGANVLATARGGPPQQ-NH2 [Hill-Cec2]

**Result**
> 32.00 µM
> 64.00 µM
1.00 µM
0.25 µM
1.00 µM

----------
Please respond with reported pIC50 for every item in the list.
# Tested on: M. tuberculosis ATCC 25177 (H37Ra)
# MEASUREMENT SETUP: read-out: IC50 M. tuberculosis ATCC 25177 (H37Ra); repeat 1; starting at 32 μM; 5×10^5 CFU/mL, 7 days, 37°C, resazurin
pIC50: −log10 of the molar value. Ends that are not written are not given here.

- SUBSTANCE: "RWYKKIFKPVEKAVQRVRDGTLQALGVAQQAANVYATAQGAQQQRHA-NH2 [Hill-Cec10]"
  pIC50: "< 4.49"

Noted for SWWKKVFKPVEKLGQRVRDATIQGIGIAQQGANVLATVRGGPPQ-NH2 [Hill-Cec1] : its pIC50 reads < 4.49

----------
Please respond with reported MIC E. coli ATCC 8739 for every item in the list.
# Tested on: E. coli ATCC 8739
# Assay type: cell-based, Escherichia coli
# MEASUREMENT SETUP: repeat 2, 32-0.016 μM; determined visually, 16 h
# Description: To detect antimicrobial activity of the BSF AMPs, the peptide library underwent screening against a panel of microorganisms, consisting of S. aureus ATCC 6538, E. coli ATCC 8739, P. aeruginosa ATCC 9027, C. albicans B59630, and A. fumigatus B42928. […] After incubation, read-out of the antimicrobial activity was performed using a resazurin assay. […] Fluorescence was read using a microplate reader (Telix) at λexcitation = 550 nm and λemission = 590. […] MIC values were determined visually. […]
Ends that are not written are not given here.

- SUBSTANCE: "QLPCDYLSGLGFGEDACNTDCIAKGHKSGFCTGLVCRCRTL [Hill-Def8, Defensin without disulfide bridges]"
  VALUE REPORTED: "> 32.00 µM"
- SUBSTANCE: "GWWKRVFKPVEKLGQRVRDAGIQGLEIAQQGANVLATARGGPPQQ-NH2 [Hill-Cec3]"
  VALUE REPORTED: "0.50 µM"
- SUBSTANCE: "AMCDLLSGLNMGRSVCAMRCILKGHRGGWCDDQGVCNCRV [Hill-Def5, Defensin without disulfide bridges]"
  VALUE REPORTED: "> 32.00 µM"
- SUBSTANCE: "FNNLPICVEGLAGDIGSILLGVESDIGALAGAIANLALIAGECAAQGEAGAAICA-NH2 (cysteines drawn unpaired) [Hill-Stom1]"
  VALUE REPORTED: "> 64.00 µM"
- SUBSTANCE: "GWWKRVFKPVERLGQRVRDAGIQGLQIAQQGANVLATVRGGPPQQ-NH2 [Hill-Cec4]"
  VALUE REPORTED: "2.00 µM"
- SUBSTANCE: "ATCTNWNCRTQCIARGKRGGYCVERNICKCTS [Hill-Def3, Defensin without disulfide bridges]"
  VALUE REPORTED: "> 32.00 µM"

Next up:
Noted for LSCLFENQAVSAIACGASCITRKGKRGGWCSNGVCRCTPN [Hill-Def6, Defensin without disulfide bridges] : its MIC E. coli ATCC 8739 reads > 32.00 µM

----------
# System: E. coli ATCC 8739
# Assay type: cell-based, Escherichia coli
# MEASUREMENT SETUP: repeat 1, 64-0.25 μM; determined visually, 16 h
Ends that are not written are not given here.
Please respond with reported MIC E. coli ATCC 8739 for every item in the list.

// below: answered substances
- SUBSTANCE: "VTCDLLEPFLGPAPCMIHCIVRFRKRTGYCNSQNVCVCR [Hill-Def1, Defensin without disulfide bridges, C-terminal amidation]"
  MIC E. coli ATCC 8739: "> 64.00 µM"
- SUBSTANCE: "RWYKKIFKPVEKAVQRVRDGTLQALGVAQQAANVYATAQGAQQQRHA-NH2 [Hill-Cec10]"
  MIC E. coli ATCC 8739: "0.25 µM"

Next up:
Noted for QLPCDYLSGLGFGEDACNTDCIAKGHKSGFCTGLVCRCRTL [Hill-Def8, Defensin without disulfide bridges] : its MIC E. coli ATCC 8739 reads > 64.00 µM
